Test: PAMPA permeability
Format: in vitro ADME
Hi there, I'd appreciate the recorded PAMPA Permeability for every entry that follows.

>  <compound>
Cc1cc(C(=O)NC2CC2)ccc1-n1c(=O)ccc2cnc3ccc(-c4ccc(C5(N)CC5)cc4)cc3c21 [Compound 224]

>  <PAMPA Permeability>
< 1 ×10⁻⁶ cm/s

$$$$
>  <compound>
O=C(NC1CCCCCC1)c1ccc(-n2c(=O)ccc3cnc4ccc(-c5ccc(Cl)cc5)cc4c32)cc1 [Compound 157]

>  <PAMPA Permeability>
< 1 ×10⁻⁶ cm/s

$$$$

Could you now consider this next compound?
Inquiry: What does the data say about its PAMPA Permeability? Entry: CN(C)Cc1ccc(-c2ccc3ncc4ccc(=O)n(-c5ccc(C(=O)N6CCN(CCO)CC6)cc5)c4c3c2)cc1 [Compound 162]
Reply text: < 1 ×10⁻⁶ cm/s

* * *

Give measured mTOR for each item. Keep answers brief.
Biological target: UniProt P42345
Assay: mTOR activity (no method described)
Format: biochemical
One number for each entry, in nM.

See these solved cases before continuing.
>  <compound>
Cc1ccc(C#N)cc1-n1c(=O)n(C)c2cnc3ccc(-c4cccn4C)cc3c21 [Compound 420]

>  <system-tested>
UniProt P42345

>  <reported-value>
30220

$$$$
>  <compound>
N#Cc1ccc(-c2ccc3ncc4ccc(=O)n(-c5ccc(C(=O)N6CCOCC6)cc5)c4c3c2)cc1 [Compound 170]

>  <system-tested>
UniProt P42345

>  <reported-value>
3773

$$$$
>  <compound>
CCc1ccc(-c2ccc3ncc4ccc(=O)n(-c5ccc(C(=O)N6CCOCC6)cc5)c4c3c2)cc1 [Compound 195]

>  <system-tested>
UniProt P42345

>  <reported-value>
781.4

$$$$

From here, focus on the item given below.
Inquiry: Form field: reported mTOR of O=C(c1ccc(-n2c(=O)ccc3cnc4ccc(-c5ccc(Cl)cc5O)cc4c32)cc1)N1CCOCC1 [Compound 134]
Reply text: 2007
